- METHOD_NOTES: Leishmania major promastigote growth inhibition, primary screen (AID 1063);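 further: promastigotes grown with compound for 44 hours at 28 °C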
- CONDITION_NOTES: Leishmania major promastigotes, resazurin fluorescence viability; at 10 µM; stronger effect = higher value
Screen size: about 200,000 compounds; about 18,000 (9%) were called active. The entries come from a sample that favours actives as a whole.
READOUT_KIND: inhibition (%)

>>> reported_measurement("COc1ccc(NC(=S)NC2CCS(=O)(=O)C2)cc1 (stereo not given)")
6.02
>>> reported_measurement("Cc1cccc(C)c1NC(=O)C1(N(C(=O)c2ccccn2)c2ccc(O)cc2)CCCCC1")
-0.59
>>> reported_measurement("Cc1nc2cc(NC(=O)NC3CC3)ccc2n1C")
-6.22
>>> reported_measurement("Cc1nnc(SCC(=O)N/N=C/c2cn(-c3ccccc3)nc2-c2ccc(F)cc2)n1-c1ccccc1")
-0.75
>>> reported_measurement("Cc1ccc(C(=O)N2CCN(S(=O)(=O)N3CCOCC3)CC2)cc1")
-2.24
>>> reported_measurement("COCCN(C(=O)c1ccccc1F)c1c(N)n(Cc2ccccc2)c(=O)[nH]c1=O")
-1.31
>>> reported_measurement("Cc1ccccc1-c1nc(C#N)c(NCc2ccco2)o1")
-3.77
>>> reported_measurement("COc1cc(CN(C)Cc2nc3cc(C(F)(F)F)ccc3c(=O)[nH]2)ccc1OC(F)F")
8.36
>>> reported_measurement("O=C(CNCc1ccco1)Nc1cc(S(=O)(=O)N2CCOCC2)ccc1N1CCCC1")
-1.86
>>> reported_measurement("COc1ccc(-c2nnc3ccc(SCc4ccccc4)nn23)cc1")
-3.51
>>> reported_measurement("CCOC(=O)C1C(c2ccc(Cl)cc2)NC(=S)NC1(O)C(F)(F)F (stereo not given)")
-2.87
>>> reported_measurement("Cc1nn(-c2ccccc2)c(C)c1NC(=O)COc1ccc(Cl)cc1Cl")
43.4
>>> reported_measurement("COc1ccc(-c2csc(NC(=O)COC(=O)c3ccc(Br)o3)n2)cc1")
95.2
>>> reported_measurement("O=C(CN1CCN(S(=O)(=O)c2ccc(F)cc2)CC1)Nc1ccccc1F")
1.33
>>> reported_measurement("CC(C)(C)NC(=O)NC(=O)COC(=O)C1(C)CC1(Cl)Cl (stereo not given)")
0.27
>>> reported_measurement("Cc1ccc(C(=O)/C=C/c2c(C)nn(-c3ccccc3)c2Cl)cc1")
73.7
>>> reported_measurement("Cc1nn(-c2ccccc2)c(Cl)c1/C=C/C(=O)c1ccc(O)cc1")
44.1
>>> reported_measurement("O=C(NC1CC1)C1CCCN(C(=O)NC2CCCCC2)C1 (stereo not given)")
1.82
>>> reported_measurement("N/C(Cc1ccc([N+](=O)[O-])cc1)=N\\OC(=O)C1CCCCC1")
-4.63
>>> reported_measurement("CCN1CCN(C(=O)c2ccc(CN(c3ccc(C)c(C)c3)S(C)(=O)=O)cc2)CC1")
3.09

---

- METHOD_NOTES: Leishmania major promastigote growth inhibition, primary screen (AID 1063);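 further: promastigotes grown with compound for 44 hours at 28 °C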
- CONDITION_NOTES: Leishmania major promastigotes, resazurin fluorescence viability; at 10 µM
About 18,000 (9%) of roughly 200,000 compounds were called active. Cut-off read from the data, not from the text of the source: active = inhibition above about 50%; inactive = the rest. The list comes from a sample in which actives are over-represented; it also holds close analogues and randomly drawn compounds.
Outcome codes: Y for active, N for inactive

>>> assigned_class("COc1ccc(F)c(-c2nc(CN3CCC(c4ccccc4)CC3)c(C)o2)c1")
"N"
>>> assigned_class("CC(OC(=O)CN1C(=O)C2CCCCC2C1=O)C(=O)Nc1ncc(Cl)cc1Cl (stereo not given)")
"N"
>>> assigned_class("Cc1ccsc1C(=O)N/N=C/c1ccc([N+](=O)[O-])cc1")
"N"
>>> assigned_class("Cc1ccccc1NC(=S)NNC(=O)c1cccc(Br)c1")
"N"
>>> assigned_class("Cc1ccc(NC(=S)NCCN2CCOCC2)cc1")
"N"
>>> assigned_class("CCC1CCc2c(sc(NC(C)=O)c2C#N)C1 (stereo not given)")
"N"
>>> assigned_class("O=[N+]([O-])c1cc(Br)c(O)c(/C=N/Nc2nc3ccccc3s2)c1")
"N"
>>> assigned_class("CC(=O)C1C(c2cccc(Oc3ccccc3)c2)NC(=O)NC1(O)C(F)(F)F (stereo not given)")
"N"
>>> assigned_class("CC1=CC(C)(C)Nc2ccc(OC(=O)C(Cc3ccccc3)N3C(=O)C4CCCCC4C3=O)cc21 (stereo not given)")
"Y"
>>> assigned_class("COc1cc(C(=S)N2CCOCC2)ccc1O")
"N"
>>> assigned_class("CC1(C)CN=C(N2CCN(c3ncnc4sc5c(c34)CCCC5)CC2)S1")
"Y"
>>> assigned_class("COc1ccc(CNC(=O)CCCn2nc(C)c([N+](=O)[O-])c2C)cc1")
"N"
>>> assigned_class("COCCNc1cc(NCCOC)c([N+](=O)[O-])cc1[N+](=O)[O-]")
"N"
>>> assigned_class("COc1ccc(-n2cnc3cc(NCc4ccco4)ccc32)cc1")
"Y"
>>> assigned_class("CN(C(=O)CSc1nnc(-c2c[nH]c3ccccc23)o1)C1CCS(=O)(=O)C1 (stereo not given)")
"N"
>>> assigned_class("Cc1cc(NC(C)C)n2c(nc3ccccc32)c1C#N")
"N"
>>> assigned_class("CCCCS(=O)c1snnc1C (stereo not given)")
"N"
>>> assigned_class("O=C1/C(=C/c2cccs2)CCC1C1CCCC1 (stereo not given)")
"N"
>>> assigned_class("COc1ccc(Cc2n[nH]c(=S)n2NC(=O)Nc2ccc(C)cc2)cc1")
"N"
>>> assigned_class("O=C1NC(c2ccc(-c3ccccc3[N+](=O)[O-])o2)C(C(=O)c2ccc(Cl)cc2)C(O)(C(F)(F)F)N1 (stereo not given)")
"Y"
>>> assigned_class("Cc1cc(C(=O)N/N=C/c2cc([N+](=O)[O-])cc(C)c2O)n[nH]1")
"Y"
>>> assigned_class("COc1ccc(-c2csc(-c3cccs3)n2)cc1OC")
"N"
>>> assigned_class("Cc1[nH]n(-c2cccc(Cl)c2)c(=O)c1/C=N/n1c(C)nc2ccccc2c1=O")
"N"
>>> assigned_class("CC(=O)N/N=C/c1cc2c(cc1[N+](=O)[O-])OCO2")
"N"
>>> assigned_class("c1ccc2cc3c(NCCN4CCOCC4)ccnc3cc2c1")
"Y"
>>> assigned_class("S=C(NCc1cccnc1)Nc1ccc(Cl)cc1Cl")
"N"
>>> assigned_class("CCC(C)c1ccc(NC(=S)NCc2ccccn2)cc1 (stereo not given)")
"N"
>>> assigned_class("Cc1c(C(N)=O)sc2ncn(CCOc3ccccc3)c(=O)c12")
"N"
>>> assigned_class("c1ccc2[nH]c(NCCN3CCOCC3)nc2c1")
"N"
>>> assigned_class("Cc1[nH]n(-c2cccc(Cl)c2)c(=O)c1-c1ccc(Cl)cc1")
"Y"
>>> assigned_class("CC[N+]1(CC)CC2=Cc3ccccc3CC2C1 (stereo not given)")
"N"
>>> assigned_class("O=C(NCCN1C(=O)S/C(=C\\c2cccnc2)C1=O)c1cccc(OC(F)F)c1")
"Y"
>>> assigned_class("COc1ccc(Nc2nc(Cl)nc(NCc3ccco3)n2)cc1")
"N"
>>> assigned_class("COc1ccc(CN2CCC(c3nc4ccc(Cl)cc4[nH]3)CC2)cc1")
"Y"
>>> assigned_class("CCCOCC(O)CC(CC)C(=O)NNC(=S)Nc1ccccc1 (stereo not given)")
"N"

---

- METHOD_NOTES: Leishmania major promastigote growth inhibition, primary screen (AID 1063);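 further: promastigotes grown with compound for 44 hours at 28 °C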
- CONDITION_NOTES: Leishmania major promastigotes, resazurin fluorescence viability; at 10 µM
Hit rate of the full screen: of about 200,000 compounds, about 18,000 (9%) were called active. Rule as the data show it: active = inhibition above about 50%; inactive = the rest. Only a selection was taken, and actives are over-represented in it overall.
Outcome codes: t (active), f (inactive)

>>> assigned_class("COc1ccc(C(=O)C2CCCN(C(=O)c3cc4nc(C)cc(C)n4n3)C2)cc1F (configuration not stated)")
"t"
>>> assigned_class("CCCCn1nc(C(=O)Nc2ccc(S(=O)(=O)Nc3ncccn3)cc2)c2ccccc2c1=O")
"f"
>>> assigned_class("O=C(CN1C(=O)/C(=C\\c2ccccc2F)SC1=S)Nc1nc2ccccc2s1")
"f"
>>> assigned_class("CC(C)Cn1c(N2CCN(C(=O)/C=C/c3ccccc3)CC2)nc2ccccc21")
"f"
>>> assigned_class("CCCn1nc(C(=O)Nc2ccc3nc(C)sc3c2)c2ccccc2c1=O")
"t"
>>> assigned_class("COC(=O)c1ccc(NC(=O)c2cc(Cl)ccc2OC)cc1")
"f"
>>> assigned_class("O=C(Cn1c(N2CCN(C/C=C/c3ccccc3)CC2)nc2ccccc21)c1ccccc1")
"t"
>>> assigned_class("Cn1c(=O)c2c(nc(SCC(=O)Nc3ccccc3N3CCCCC3)n2C)n(C)c1=O")
"f"
>>> assigned_class("CC(C)CC(=O)NC(=S)NNC(=O)c1cccc([N+](=O)[O-])c1")
"f"
>>> assigned_class("CCOC(=O)/C(=N\\Nc1ccccc1Cl)N(C)C1CCS(=O)(=O)C1 (configuration not stated)")
"f"
>>> assigned_class("COc1cc(C(=O)N[C@@H](C)C(=O)NCc2ccco2)cc(OC)c1OC")
"f"
>>> assigned_class("CCCn1nc(C(=O)N2CCCc3ccccc32)c2ccccc2c1=O")
"f"
>>> assigned_class("Cc1ccc(-n2c(C)cc(C(=O)CN3C(=O)C(=O)N(C4CCCC4)C3=O)c2C)cc1")
"f"
>>> assigned_class("COc1cc(NC(=O)c2cccs2)ccc1NC(=O)c1ccccc1Cl")
"f"
>>> assigned_class("N/C(=N\\OC(=O)N1c2ccccc2Sc2ccccc21)c1ccc(Br)cc1")
"f"
>>> assigned_class("CCN(CC)c1ccc(C(=O)c2cnc(/N=C/N(C)C)s2)cc1")
"f"
>>> assigned_class("C=CCOC(=O)C1=C(C)N=C2SCCC(=O)N2C1/C=C/c1ccccc1OC (configuration not stated)")
"f"
